Where these numbers come from: PubChem BioAssay AID1645838

Assay: supercomplex reporter luminescence per Hoechst cell count – Hoechst nuclei count (AID 1645838);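 further: control cybrid cells; higher means more mitochondrial supercomplex formation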
Conditions: Cells, luminescence/Hoechst cell count ratio, library stock concentration (final well concentration not given) 1.67 mM, hits give high values
About 100 (5%) of roughly 2,000 compounds were called active. Many of the other results were omitted from the sample, so actives are more common in it than they were.
Assign classes using reported z-score values and the ranges zone 1: < -0.2; zone 2: ≥ -0.2 and < 0.04; zone 3: ≥ 0.04, please.

[[record]]
compound = "O=C(NNS(=O)(=O)c1ccccc1C(F)(F)F)c1cc2cc(Cl)ccc2o1"
label_value = "zone 1"

[[record]]
compound = "COc1cc(C=C(C#N)C(=O)Nc2nnc(C(F)(F)F)s2)ccc1OCc1ccc(C(F)(F)F)cc1C(F)(F)F"
label_value = "zone 1"

[[record]]
compound = "NC(=O)c1noc(C(CCCC2CCCCC2)CC(=O)NO)n1 (stereo not given)"
label_value = "zone 2"

[[record]]
compound = "O=c1ncccn1C1OC(CO)C(O)C1O (stereo not given)"
label_value = "zone 1"

[[record]]
compound = "O=C(Nc1cccc(Br)c1)c1cccc(S(=O)(=O)N2CCCCCC2)c1"
label_value = "zone 3"

[[record]]
compound = "CC(=NNC(=O)c1cccc(S(=O)(=O)N2CCOCC2)c1)c1cc(Cl)ccc1O"
label_value = "zone 3"

[[record]]
compound = "O=C(O)c1ccc2nc(-c3cc(Cl)cc(Cl)c3)oc2c1"
label_value = "zone 3"

[[record]]
compound = "CCOC(=O)NCCCC(=O)NCCc1ccccc1"
label_value = "zone 2"

[[record]]
compound = "COc1cccc(OC)c1-c1ccc(CC(NC(=O)c2c(Cl)cccc2Cl)C(=O)O)cc1 (stereo not given)"
label_value = "zone 2"

[[record]]
compound = "Cc1nc(Nc2ncc(C(=O)Nc3c(C)cccc3Cl)s2)cc(N2CCN(CCO)CC2)n1"
label_value = "zone 3"

